Tested on: SNB-75
procedure-details: NCI tumour cell line growth inhibition, 48 h
Calls of active or inactive are those of the source. Rule as the data show it: active = GI50 up to about 1.1 µM and inactive = higher.
experimental-endpoint: GI50

compound	experimental-endpoint	value-reported
C=C1CCC(CC[C@@H]2CC[C@]3(OC2)O[C@@]2(O)CC[C@]3(C)OC2(C)C)C(C)(C)[C@H]1C/C=C1/C(=O)OC[C@@H]1O (stereo partly drawn)	GI50	7.29 µM (inactive)
O=C1O[C@]2(c3ccccc3)C(c3ccccc3)=C[C@]2(C(=O)c2ccccc2)C1=O	GI50	3.92 µM (inactive)
Nc1nc(F)nc2c1ncn2C1OC(COP(=O)(O)O)C(O)C1O (stereo not drawn)	GI50	188 µM (inactive)
Cc1ccccc1C(C#N)/C(=N/NC(N)=S)C(=O)Nc1c(C)cccc1C (stereo not drawn)	GI50	> 100 µM (inactive)
Cc1ccc(NC(=S)C#N)c(C)c1	GI50	> 82.4 µM (inactive)

Continue with the next compound.
# input compound: CC([C@H]1CCC2C3CCC4CC5(CC[C@]4(C)C3CC[C@@]21C)c1ccccc1C(=O)N5C)N(C)C (stereo partly drawn) ; wanted: its GI50
3.45 µM (inactive)
